# system name: IDO1 (Homo sapiens, UniProt P14902)
# Sequence (P14902 whole entry): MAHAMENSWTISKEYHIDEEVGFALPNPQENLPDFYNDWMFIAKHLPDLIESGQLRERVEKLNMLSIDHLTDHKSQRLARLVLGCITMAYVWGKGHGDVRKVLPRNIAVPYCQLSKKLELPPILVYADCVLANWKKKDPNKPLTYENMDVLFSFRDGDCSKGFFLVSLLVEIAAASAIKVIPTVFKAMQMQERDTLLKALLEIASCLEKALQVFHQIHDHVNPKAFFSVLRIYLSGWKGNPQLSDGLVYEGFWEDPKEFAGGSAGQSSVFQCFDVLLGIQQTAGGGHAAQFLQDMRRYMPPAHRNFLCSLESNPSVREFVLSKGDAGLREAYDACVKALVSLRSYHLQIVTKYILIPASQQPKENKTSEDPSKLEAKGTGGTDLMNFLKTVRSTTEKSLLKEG
# assay details: IDO1 Cellular Assay in HeLa Cells Stimulated with IFNγ
# Format: cell-based
# particulars: IFNγ 100 ng/mL, 300 uM L-tryptophan, about 48 hours, fluorescence readout, read-out: IDO1 HELA Cell Assay, IC50
# Description: Biological Assays IDO1 Cellular Assay in HeLa Cells Stimulated with IFNγ HeLa cells were cultured in complete HeLa culture medium (90% EMEM, 10% heat-inactivated fetal bovine serum) and expanded to about 1×10^9 cells. […] Frozen HeLa cells were thawed and transferred into HeLa assay medium (99% complete HeLa culture medium, 1% Pen/Strep) with 20 mL medium/vial of cells. […] The cells were then counted and adjusted to a density of 2×10^5 cells/mL in HeLa assay medium. […]
pIC50: −log10 of the molar value.

compound	system name	pIC50
C[C@@H]1CN(C(=O)c2nn(CC(=O)N3CCC(c4cccc5c(F)cccc45)CC3)c3c2CCC3)C[C@H](C)O1 [Example 85]	IDO1 (Homo sapiens, UniProt P14902)	8.28
C[C@@H]1CN(C(=O)c2nn(CC(=O)N3CCC(c4ccc(F)cc4)CC3)c3c2CCC3)C[C@H](C)O1 [Example 68]	IDO1 (Homo sapiens, UniProt P14902)	7.15
C[C@@H]1CN(C(=O)c2nn(CC(=O)N3CCC(c4cccc(OC(F)(F)F)c4)CC3)c3c2CCC3)C[C@H](C)O1 [Example 160]	IDO1 (Homo sapiens, UniProt P14902)	6.79
Cc1cccc(C2CCN(C(=O)Cn3nc(C(=O)N4C[C@@H](C)O[C@@H](C)C4)c4c3CCC4)CC2)c1C [Example 64]	IDO1 (Homo sapiens, UniProt P14902)	8.96
Cc1ccc(C2CCN(C(=O)Cn3nc(C(=O)N4C[C@@H](C)O[C@@H](C)C4)c4c3CCC4)CC2)cc1 [Example 127]	IDO1 (Homo sapiens, UniProt P14902)	7.21
Cc1cccc(C2CCN(C(=O)Cn3nc(C(=O)N4CCC(O)CC4)c4c3CCC4)CC2)c1C [Example 41]	IDO1 (Homo sapiens, UniProt P14902)	8.44
C[C@@H]1CN(C(=O)c2nn(CC(=O)N3CCC(c4cccc5ccsc45)CC3)c3c2CCC3)C[C@H](C)O1 [Example 84]	IDO1 (Homo sapiens, UniProt P14902)	8.33
Cc1cc(C2CCN(C(=O)Cn3nc(C(=O)N4C[C@@H](C)O[C@@H](C)C4)c4c3CCC4)CC2)cc(C)c1F [Example 139]	IDO1 (Homo sapiens, UniProt P14902)	7.05

###

# system name: IDO1 (Homo sapiens)
# assay details: IDO1 Cellular Assay in HeLa Cells Stimulated with IFNγ
# Type: cell-based
# particulars: IFNγ 100 ng/mL, 300 uM L-tryptophan, about 48 hours, fluorescence readout, read-out: IDO1 HELA Cell Assay, IC50
# Description: Biological Assays IDO1 Cellular Assay in HeLa Cells Stimulated with IFNγ HeLa cells were cultured in complete HeLa culture medium (90% EMEM, 10% heat-inactivated fetal bovine serum) and expanded to about 1×10^9 cells. […] Frozen HeLa cells were thawed and transferred into HeLa assay medium (99% complete HeLa culture medium, 1% Pen/Strep) with 20 mL medium/vial of cells. […] The cells were then counted and adjusted to a density of 2×10^5 cells/mL in HeLa assay medium. […]
readout kind: IC50 (nM)

compound	reading
Cc1cccc(C2CCN(C(=O)Cn3nc(C(=O)N4CC[C@@H](O)[C@@H](F)C4)c4c3CCCC4)CC2)c1C [Example 35]	1.3
Cc1cccc(C2CCN(C(=O)Cn3nc(C(=O)N4CC[C@H](O)[C@@H](F)C4)c4c3C[C@H]3C[C@@H]43)CC2)c1C [Example 23]	1.1
COc1cccc(C2CCN(C(=O)Cn3nc(C(=O)N4C[C@@H](C)O[C@@H](C)C4)c4c3CCC4)CC2)c1 [Example 108]	37.9
C[C@@H]1CN(C(=O)c2nn(CC(=O)N3CCC(c4cccc(Cl)c4Cl)CC3)c3c2CCC3)C[C@H](C)O1 [Example 87]	7.8
Cc1cccc(C2CCN(C(=O)Cn3nc(C(=O)N4CC[C@@H](O)[C@@H](F)C4)c4c3CCC4)CC2)c1C [Example 60]	3.5
Cc1cc(C)c(C2CCN(C(=O)Cn3nc(C(=O)N4C[C@@H](C)O[C@@H](C)C4)c4c3CCC4)CC2)cc1C [Example 136]	85

These measurements were taken from patent US12091405B2.
